targetOrSystem: UniProtKB Q16539
Sequence (Q16539 whole entry, looked up): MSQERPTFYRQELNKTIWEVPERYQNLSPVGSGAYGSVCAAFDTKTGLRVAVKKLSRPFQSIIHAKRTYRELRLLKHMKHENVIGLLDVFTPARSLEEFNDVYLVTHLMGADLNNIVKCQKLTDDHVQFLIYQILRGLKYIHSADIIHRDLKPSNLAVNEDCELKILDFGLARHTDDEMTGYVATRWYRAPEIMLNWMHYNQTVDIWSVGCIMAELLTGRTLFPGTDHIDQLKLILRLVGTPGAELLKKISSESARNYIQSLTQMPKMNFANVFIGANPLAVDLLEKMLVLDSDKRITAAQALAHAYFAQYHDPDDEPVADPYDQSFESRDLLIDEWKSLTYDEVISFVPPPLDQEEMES
assayDetails: Inhibition of IL-6 Production in Whole Blood Cells
Listing of recorded IC50 by entry.
Please don't drop the unit; write it after the number.

Solved cases below.
structureString: Cc1cc(F)ccc1-c1nc(N(C(N)=O)c2c(F)cccc2F)ccc1CO
IC50: 75 nM

structureString: Cc1ccccc1-c1nc(N(C(N)=O)c2c(Cl)cccc2Cl)ccc1CO
IC50: 250 nM

Kindly review the next molecule as well.
## Input Identify IC50 associated with the molecule "Cc1cc(F)ccc1-c1nc(N(C(N)=O)c2c(Cl)cccc2Cl)ccc1CO"
## Output 180 nM
